targetDesc: T1, native IHFNTHI (integration host factor of nontypeable Haemophilus influenzae) (nontypeable Haemophilus influenzae …, UniProt P43723 1-96; P43724 1-94)
T1 construct: also called NTHI IHF
T1 sequence 1: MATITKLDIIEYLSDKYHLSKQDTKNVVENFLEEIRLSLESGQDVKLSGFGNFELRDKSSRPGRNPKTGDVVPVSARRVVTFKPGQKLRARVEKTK
T1 sequence 2: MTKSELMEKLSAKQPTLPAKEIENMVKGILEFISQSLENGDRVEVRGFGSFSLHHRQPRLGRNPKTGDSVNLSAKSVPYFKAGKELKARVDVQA
protocolNotes: SPR Biacore 3000, IHFNTHI immobilized, HuMab as analyte
measuredProperty: koff (s⁻¹)
Could you give me the number in s⁻¹? Just the number is fine.

Q: For the binder humanized anti-tip monoclonal antibody, heavy chain SEQ ID NO: 2 and light chain SEQ ID NO: 9 (antibody, V domains shown, also called H10211 (1F8.F1 Humanized HC2) + L10212 (1F8.F1 Humanized LC3)) VH: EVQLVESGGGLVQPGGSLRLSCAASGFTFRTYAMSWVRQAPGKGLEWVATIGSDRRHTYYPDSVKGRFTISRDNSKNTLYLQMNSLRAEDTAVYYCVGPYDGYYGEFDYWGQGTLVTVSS VL: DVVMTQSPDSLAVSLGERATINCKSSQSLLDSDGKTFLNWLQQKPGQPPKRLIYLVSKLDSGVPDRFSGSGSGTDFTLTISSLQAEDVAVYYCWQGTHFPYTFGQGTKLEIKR , give its measured koff value.
Ans: 0.0017
